Target sequence: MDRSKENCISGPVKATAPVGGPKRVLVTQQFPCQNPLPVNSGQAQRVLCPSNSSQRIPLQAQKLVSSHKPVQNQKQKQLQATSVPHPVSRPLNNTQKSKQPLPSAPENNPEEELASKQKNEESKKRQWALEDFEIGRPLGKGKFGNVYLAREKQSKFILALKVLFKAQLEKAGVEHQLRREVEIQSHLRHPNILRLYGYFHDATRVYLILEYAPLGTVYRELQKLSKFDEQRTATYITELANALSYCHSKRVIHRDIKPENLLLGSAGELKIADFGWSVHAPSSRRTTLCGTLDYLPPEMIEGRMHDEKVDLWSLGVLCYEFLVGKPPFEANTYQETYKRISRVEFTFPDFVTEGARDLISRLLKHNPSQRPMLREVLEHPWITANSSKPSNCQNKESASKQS
READOUT_LABEL: Ki

[[record]]
structure_smiles_string = "Cc1cc(/C=C/C#N)cc(C)c1Nc1ccnc(Nc2ccc(C#N)cc2)n1"
val = "116 nM"


This collection of values is drawn from paper PMC9607353.
